This section presents binders with their documented TOP inhibition (%) values.
Biological target: T1, human PD-1 ECD/Fc fusion protein (human)
T1 construct: also called huPD-1/Fc; HuPD-1 ECD/Fc
Experiment: RBA ELISA on huPD-1/Fc; competitor biotin-huPD-L2/Fc
Number in %, nothing else.

Lookup result for mAb714 (antibody, V domains shown, murine hybridoma anti-PD-1 mAb) VH: EVHLQQSGPELVKPGASVKIFCKASGYTFTDNNVEWVKQSHGKSLEWIGDINPNNGDTLYSQYFKDKATLTVDKSSTTAYMELRSLTSEDTGLYYCARGKSDQFDYWGQGTTLTVSS VL: DIQMTQSPASQSASLGESVTITCLASQTIGTWLAWYQQKPGKSPQLLIYAATSLADGVPSRFSGSGSGTKFSFKISSLQGEDFVSYYCQQLYSSPWTFGGGTKLEIK ; measured TOP inhibition (%): 93.1

// mAb715 (antibody, V domains shown, murine hybridoma anti-PD-1 mAb) VH: EVMLVESGGGLLKPGGSLKLSCAASGFTFSSYAMSWVRQTPEKRLEWVATISGGGRDTYYPDSVKGRFTISRDNAKNTLYLQMTSLRSEDTAFYYCAGQGGTYLFASWGQGTLVTVSA VL: DIVMTQSHKFMSTSVGDSVTITCKASQDVNTAVAWYQQKPGQPPKVLIYWASTRHTGVPDRFTGSGSGTDYTLTISSVQAEDLALYYCQQHYTTPYTFGGGTKLEIK : TOP inhibition (%) value = 88

Record mAb701 (antibody, V domains shown, murine hybridoma anti-PD-1 mAb) VH: EVLLVESGGGLVKPGGSLKLSCAASGFTFSSYMMSWIRQTPERRLEWVASMSGGGRDTYYPDSVKGRFTISRDNAKNTLYLQMSSLRSEDTALYYCARRGTYAMDYWGQGTSVTVSS VL: DIQMTQSPASQSASLGESVTITCLASQTIGTWLTWYQQKPGKSPQLLIYAATSLADGVPSRFSGSGSGTKFSFKISSLQAEDFVSYYCQQLYSTPWTFGGGTKLEIK , field TOP inhibition (%): 94.1

Lab note: mAb718 (antibody, V domains shown, murine hybridoma anti-PD-1 mAb) VH: QVQLQQSGAELVRPGASVTLSCKASGYTFTDYEMHWAKQTPVHGLEWIGVIEPESGGTVYNQKFKGKAKLTADKSSRTAYMELRSLTSEDSAVYYCTREGFNSDHYFDYWGQGTTLTVSS VL: DVLMTQTPLSLPVSLGDQASISCRSSQNIVHSNGNTYLEWYLQKPGQSPKLLIYKVFNRFSGVPDRFSGSGSGTDFTLKISRVEAEDLGVYYCFQGSHVPYTFGGGTKLEIK gave TOP inhibition (%) of 96.6

response.value for mAb703 (antibody, V domains shown, murine hybridoma anti-PD-1 mAb) VH: DVQLQESGPGLVKPSQSLSLTCSVTGYSITTGYYWNWIRQFPGNKLEWMGYMSYDGNNNYNPSLKNRISITRDTSKNQFLLRLNSVTTEDTATYFCARDRGTTILGGTMDYWGQGTSVTVS VL: SIVMTQTPKFLFVSAGDRVTIACKASQSVSNDVAWYQQKPGQSPKLLIYYAFYRYTGVPDRFTGSGYGTDFTFTISTVQAEDLAVYFCQQDYSSPWTFGGGTKLEIK (field: TOP inhibition (%)) = 95.7
